// merged dataset of pIC50 values, system = UniProt:P29597, multiple refs
pIC50: −log10 of the molar value.

molecule: CCN(c1ncc(C)cc1CNc1nc(-c2cc(F)c(O)cc2CC(F)(F)F)cc2[nH]nc(C(N)=O)c12)S(C)(=O)=O
measured_on: UniProt:P29597
pIC50: 5.60
//
molecule: CC1CCOCc2cc(ccc2OCC2CCOC2)Nc2nccc(n2)-c2ccc(cc2N)C(=O)NC1 (stereo not shown)
measured_on: UniProt:P29597
pIC50: 6.00 to 7.00
//
molecule: O=C1Nc2ccc(cc2)OCc2cc(ccc2OCC2CCCOC2)Nc2nccc(n2)-c2ccc1cc2[N+](=O)[O-] (stereo not shown)
measured_on: UniProt:P29597
pIC50: < 5.00

Quick check: pIC50 of CCC(CC)n1cc(-c2nc(-c3cnn(CCN4CCNC(=O)C4)c3)cn3nccc23)cn1 ?
7.00 to 8.00

* * *

pIC50: −log10 of the molar value.
Compiled record: pIC50 values for Non-receptor tyrosine-protein kinase TYK2 (Homo sapiens) across several sources.

Requested read-out pIC50, target or system Non-receptor tyrosine-protein kinase TYK2 (Homo sapiens), entry CCC(CC)n1cc(-c2nc(-c3cnn(C[C@@H](N)CO)c3)cn3nccc23)cn1
7.00 to 8.00

What pIC50 appears in the records for this compound with Non-receptor tyrosine-protein kinase TYK2 (Homo sapiens)? N#CCC(C1CC1)n1cc(-c2nc(-c3cnn(Cc4cccnc4)c3)cc3nccn23)cn1 (centres unmarked)
> 8.00

# query: pIC50 | item O=C1NCCCCOCc2cc(ccc2OCc2ccccc2)Nc2nccc(n2)-c2ccc1cc2[N+](=O)[O-] | system: Non-receptor tyrosine-protein kinase TYK2 (Homo sapiens)
< 5.00

Find pIC50 (Non-receptor tyrosine-protein kinase TYK2 (Homo sapiens)) for the entry CN1CC(CC#N)(n2cc(-c3nc(-c4cnn(C)c4)cc4nccn34)cn2)C1
7.00 to 8.00

Query for Non-receptor tyrosine-protein kinase TYK2 (Homo sapiens): what pIC50 does the record show for Cn1cc(-c2cc3ncc(Cl)n3c(-c3cnn(C(CC#N)C4CC4)c3)n2)cn1 (centres unmarked) ?
> 8.00

Kindly state the measured pIC50 obtained for Cc1ccc(Cl)cc1-c1cn(-c2ncnc3[nH]ccc23)cc1C(N)=O with Non-receptor tyrosine-protein kinase TYK2 (Homo sapiens).
7.37

* * *

// merged dataset of IC50 values, system = Non-receptor tyrosine-protein kinase TYK2 (Homo sapiens, UniProt P29597), multiple refs

Some solved cases for reference:
compound: C=CC(=O)Nc1cc(Nc2ncc(Cl)c(O[C@@H]3CO[C@H]4[C@@H]3OC[C@H]4OC)n2)ccc1N1CCN(C)[C@@H](C)C1
IC50: 1190 nM

compound: CCOC(=O)Cn1cc(Nc2ncc3ccn(C[C@H]4CC[C@H](O)CC4)c3n2)cn1
IC50: < 100 nM

compound: CCC(CC)n1cc(-c2nc(-c3cnn(C4CN(C(=O)NC)C4)c3)cn3nccc23)cn1
IC50: 10 to 100 nM

Could you share which IC50 value was measured for Cn1cc(-c2cc3nccn3c(-c3cnn(C4(CCO)CN(S(=O)(=O)C(F)(F)F)C4)c3)n2)cn1 ?
10 to 100 nM

Suppose we examine the compound Cc1cc2ccc1-c1ccnc(n1)Nc1cccc(c1)COCCCCNC2=O ; what IC50 value has been reported?
> 10000 nM

IC50 for Cn1cc(-c2cc3nccn3c(-c3cnn(C(CC#N)c4ccccc4)c3)n2)cn1 (stereo not drawn) ?
< 10 nM

Which IC50 value belongs to CNC(=O)c1n[nH]c2nc(-c3cc(F)c(O)cc3CC(F)(F)F)nc(NCc3cc(F)ccc3N(C)S(C)(=O)=O)c12 ?
1380 nM

* * *

# pIC50 against Non-receptor tyrosine-protein kinase TYK2 (Homo sapiens, UniProt P29597), merged from multiple literature sources
pIC50: −log10 of the molar value.

compound: CCC(CC)n1cc(-c2nc(-c3cnn(CCCO)c3)cn3nccc23)cn1
pIC50: 5.00 to 6.00
--
compound: CCc1ccc(C(F)(F)F)cc1-c1cc(-c2ncnc3[nH]ccc23)[nH]c1C(N)=O
pIC50: 7.49
--
compound: CCc1ccc(Cl)cc1-c1[nH]c(-c2ncnc3[nH]ccc23)cc1C(=O)NC
pIC50: 7.92
--
compound: Cn1cc(-c2cc3nccn3c(-c3ccn(C4(CCF)CN(S(=O)(=O)C(F)(F)F)C4)c3)n2)cn1
pIC50: > 8.00
--
compound: O=C(Nc1nc2cccc(-c3ccc(CN4CCC(F)(F)CC4)cc3)n2n1)C1CC1
pIC50: 6.90

pIC50 lookup needed for CCC(CC)n1cc(-c2nc(-c3cnn(C4CN(C(=O)[C@H]5C[C@@H](O)C5)C4)c3)cn3nccc23)cn1 , thanks.
7.00 to 8.00

What does the data say about its pIC50? Entry: CCC(CC)n1cc(-c2nc(-c3cnn(CCN[C@H]4CCN(C)C4=O)c3)cn3nccc23)cn1
7.00 to 8.00

Which pIC50 reading was recorded for the compound CC(C)(C)OC(=O)NC12CC(n3cnc4cnc5[nH]ccc5c43)(C1)C2 ?
5.54

Dear colleague, I am looking for the recorded pIC50 of the following compound: O=C1NCCCCOCc2cc(ccc2OCC2CCC(F)(F)C2)Nc2nccc(n2)-c2ccc1cc2[N+](=O)[O-] (stereo not shown)
< 5.00

Field request: pIC50 | item: O=C1NCCCCOCc2cc(ccc2Cl)Nc2nccc(n2)-c2ccc1cc2F
5.00 to 6.00

Recorded pIC50 for O=C(NC1CC1)c1cnn2ccc(N3CCC[C@@H]3c3cncc(F)c3)nc12 , please?
< 6.00

Name the reported pIC50 value associated with the compound Cc1cc(Nc2ncc(C)c(N3CC(CC#N)(NC(=O)c4cccc(F)c4F)C3)n2)sn1
> 8.00

* * *

// note: IC50 values for UniProt:P29597 were reported in different studies

Check out these entries, answers already filled in.
compound: O=C1NCc2nc(-c3c(F)cccc3F)cc(Nc3ccc(C(=O)N4C[C@H]5COC[C@H]5C4)cc3)c21
IC50: 88.6 nM
--
compound: CCC(CC)n1cc(-c2nc(-c3cnn(C[C@@H](C)CO)c3)cn3nccc23)cn1
IC50: 10 to 100 nM
--
compound: CCC(CC)n1cc(-c2nc(-c3cnn(C[C@@H](C)O)c3)cn3nccc23)cn1
IC50: 100 to 1000 nM
--
compound: O=C(NCCC(F)(F)F)c1nn(-c2ccccc2)c2c1CN(c1ncnc3[nH]ccc13)CC2
IC50: 500 to 2000 nM

With those in mind, consider the next compound.
So what's the measured IC50 for this one? CC1(C)CCNC(=O)c2ccc(c(N)c2)-c2ccnc(n2)Nc2ccc(OC3CC3)c(c2)COC1
> 10000 nM

* * *

Compiled literature pIC50, tested on Non-receptor tyrosine-protein kinase TYK2 (Homo sapiens).
pIC50: −log10 of the molar value.

compound: Cn1cc(-c2cc3nccn3c(-c3cnn(C4(CCF)CN(C(=O)C5CC5)C4)c3)n2)cn1
reported_measurement: < 6.00
--
compound: Cc1cnc(Nc2ccccc2)nc1N1CC(CC#N)(N2CCN(C)CC2)C1
reported_measurement: > 7.30
--
compound: Cn1cc(-c2cc3ncc(C#N)n3c(-c3cnn(C(CC#N)C4CC4)c3)n2)cn1 (centres unmarked)
reported_measurement: 6.00 to 7.00
--
compound: CC(C)Oc1ccc2cc1COCC[C@@H](C)CNC(=O)c1ccc(c(N)c1)-c1ccnc(n1)N2
reported_measurement: 6.00 to 7.00

Please turn your attention to the following entry.
Given Cn1cc(-c2cc3nccn3c(-c3cnn(C4(CC#N)CN(CCF)C4)c3)n2)cn1 , state its recorded pIC50.
> 8.00

* * *

IC50 for Non-receptor tyrosine-protein kinase TYK2 (Homo sapiens), merged from several publications.

Reference set, count: 4
compound: CCC(CC(F)(F)F)n1cc(-c2nc(-c3cnn(C[C@@H](O)CO)c3)cn3nccc23)cn1 (single isomer, unassigned)
measured_on: Non-receptor tyrosine-protein kinase TYK2 (Homo sapiens)
IC50: 100 to 1000 nM
--
compound: Clc1cnc2nc1NCCc1cccc(c1)OCCCc1cccc(c1)N2
measured_on: Non-receptor tyrosine-protein kinase TYK2 (Homo sapiens)
IC50: 400 nM
--
compound: CCOC(=O)c1cnc2[nH]ccc2c1N[C@H]1C[C@H](NS(=O)(=O)c2cccc(C#N)c2)C1
measured_on: Non-receptor tyrosine-protein kinase TYK2 (Homo sapiens)
IC50: 10 to 100 nM
--
compound: Cc1cc(Nc2ncc(C)c(N3CC(CC#N)(N4CC5(CN(C)C5)C4)C3)n2)sn1
measured_on: Non-receptor tyrosine-protein kinase TYK2 (Homo sapiens)
IC50: < 1000 nM

Requested field: IC50. Item: Cc1c2ccc(Nc3ncc(Cl)c(NC4CC5CN(C(=O)CC#N)CC5C4)n3)cc2nn1C (stereo not drawn)
20 nM

// returns reported IC50 for input CCn1cc(-c2cc3nccn3c(-c3cnn(C4(CC#N)CN(CC(F)(F)F)C4)c3)n2)cn1
< 10 nM

# IC50 lookup, item C/C=C/C(=O)Nc1cc(Nc2ncc(Cl)c(O[C@@H]3CO[C@H]4[C@@H]3OC[C@H]4O)n2)ccc1N1CCC(N2CCN(C)CC2)CC1
430 nM

Returns the measured IC50 for the input compound. Input: CC1CCNC(=O)c2ccc(c(N)c2)-c2ccnc(n2)Nc2ccc(Oc3cccnc3)c(c2)COC1 (stereo not drawn)
> 10000 nM

For the compound CNS(=O)(=O)CCNC(=O)c1noc2c1CN(c1ncnc3[nH]ccc13)CC2 , what IC50 is on record?
> 2000 nM
